target: HIV-1 JR-CSF Env T319A (HIV-1 isolate JR-CSF) (UniProt P20871); test: cell-based or functional assay

Binder: PGT-130 (antibody, V domains shown) VH: QVQLQESGPGLVKPAETLSLTCSVSGESINTGHYYWGWVRQVPGKGLEWIGHIHYTTAVLHNPSLKSRLTIKIYTLRNQITLRLSNVTAADTAVYHCVRSGGDILYYYEWQKPHWFSPWGPGIHVTVSS VL: QSALTQPPSASGSLGQSVTISCNGTSSDIGGWNFVSWYQQFPGRAPRLIIFEVNKRPSGVPGRFSGSKSGNSASLTVSGLQSDDEGQYFCSSLFGRWDVVFGGGTKLTVL
Fold IC50 increase relative to wild-type, fold: 1.6
//
Binder: PGT-126 (antibody, V domains shown) VH: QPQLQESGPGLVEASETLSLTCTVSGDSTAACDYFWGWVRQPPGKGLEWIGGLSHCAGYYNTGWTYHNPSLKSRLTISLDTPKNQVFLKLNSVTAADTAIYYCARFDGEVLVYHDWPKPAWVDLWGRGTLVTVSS VL: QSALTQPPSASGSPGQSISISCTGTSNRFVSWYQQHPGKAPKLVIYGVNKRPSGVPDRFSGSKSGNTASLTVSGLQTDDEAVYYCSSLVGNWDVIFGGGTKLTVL
Fold IC50 increase relative to wild-type, fold: 0.8
//
Binder: PGT-123 (antibody, V domains shown) VH: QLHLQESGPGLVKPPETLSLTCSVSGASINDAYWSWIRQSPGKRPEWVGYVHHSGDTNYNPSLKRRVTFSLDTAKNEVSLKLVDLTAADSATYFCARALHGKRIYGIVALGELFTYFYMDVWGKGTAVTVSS VL: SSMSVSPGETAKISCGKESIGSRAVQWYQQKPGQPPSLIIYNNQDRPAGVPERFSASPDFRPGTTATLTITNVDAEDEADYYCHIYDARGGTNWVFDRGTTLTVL
Fold IC50 increase relative to wild-type, fold: 0.4
//
Binder: PGT-125 (antibody, V domains shown) VH: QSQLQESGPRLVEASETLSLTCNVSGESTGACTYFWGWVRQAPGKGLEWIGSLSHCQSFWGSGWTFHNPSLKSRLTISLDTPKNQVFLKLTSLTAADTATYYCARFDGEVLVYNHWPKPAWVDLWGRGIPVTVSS VL: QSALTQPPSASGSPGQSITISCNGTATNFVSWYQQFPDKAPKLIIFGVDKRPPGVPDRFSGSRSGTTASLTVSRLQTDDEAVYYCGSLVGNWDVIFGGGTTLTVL
Fold IC50 increase relative to wild-type, fold: 1.1
//
Binder: PGT-127 (antibody, V domains shown) VH: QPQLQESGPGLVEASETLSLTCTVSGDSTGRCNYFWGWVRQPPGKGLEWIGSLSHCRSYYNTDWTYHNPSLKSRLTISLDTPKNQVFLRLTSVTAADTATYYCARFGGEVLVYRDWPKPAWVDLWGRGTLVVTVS VL: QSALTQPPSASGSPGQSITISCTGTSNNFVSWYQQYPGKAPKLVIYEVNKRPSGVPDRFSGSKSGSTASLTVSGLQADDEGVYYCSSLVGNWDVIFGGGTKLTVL
Fold IC50 increase relative to wild-type, fold: 1
